test system: Plasmodium falciparum; test: Antimalarial activity against blood stage drug-sensitive Plasmodium falciparum NF54; type: functional, organism-based
parameter: IC50 (nM)
Use nM as the unit, but write only the number.

Which IC50 is reported with Plasmodium falciparum for this entry: Nc1ncc(-c2ccc(C(=O)N3CC(O)C3)cc2)nc1-c1ccc(C(F)(F)F)nc1 ? 9.2

* * *

test: physchem; details: buffer
parameter: log10 solubility thermodynamic (log10 of the value in µg/mL)
Would you kindly interpret these values as log10 of solubility thermodynamic expressed in µg/mL?

Worked examples, 5 compounds total:
Fill in: log10 solubility thermodynamic of O=C1CCC(N2C(=O)c3ccccc3C2=O)C(=O)N1 (stereo not drawn) [THALIDOMIDE] is ___ 1.72

For the compound C=C1C(=O)[C@]23[C@H](O)[C@H]1CC[C@H]2[C@@]12CO[C@]3(O)[C@@H](O)[C@@H]1C(C)(C)Cc1sc(NC)nc12 , what log10 solubility thermodynamic is on record? 4.63

Give its log10 solubility thermodynamic value. Item: CCOC(=O)CN(C)Cc1c(CC)c([N+](=O)[O-])cc2nc(O)c(O)nc12 2.18

Item under review: Cn1nc(C(F)(F)F)cc1C(=O)Nc1ccc(S(=O)(=O)C2CCCCC2)cc1 . Reported log10 solubility thermodynamic? 1.18

Entry Cc1nc(C)c(CC2CC/C(=C\c3c(-c4ccccc4)n(C)c4ncccc34)C2=O)nc1C (stereo not drawn) : reported log10 solubility thermodynamic = ? 4.97

---
Please give the measured log10 solubility thermodynamic for this compound: C=C1C(=O)[C@]23[C@H](O)[C@H]1CC[C@H]2[C@@]12CO[C@]3(O)[C@@H](O)[C@@H]1C(C)(C)Cc1sc(C)nc12 3.64
